// data source = patent US20020137929A1

Listing of entries alongside the reported Herbicidal rating SAGPY.
# Tested on: SAGPY (Arrowhead (Pygmaea))
# Run Description: Postemergence weed control under flooded paddy conditions
# Type: in vivo, Sagittaria pygmaea
# Experimental Parameters: Rate 0.0313 kg/ha, postemergence weeds, rated 3 to 4 weeks after treatment
Measured Metric: Herbicidal rating SAGPY

>>> experimental_result("CCS(=O)(=O)NC(=O)CC1SC(=Nc2cc(-n3c(=O)cc(C(F)(F)F)n(C)c3=O)c(F)cc2Cl)N(C)C1=O (stereo not shown) [Compound 105]")
3.0
>>> experimental_result("CCOC(=O)CN1C(=O)C(CC(=O)OC(C)C)SC1=Nc1cc(-n2c(=O)cc(C(F)(F)F)n(C)c2=O)c(F)cc1Cl (stereo not shown) [Compound 60]")
3.0
>>> experimental_result("CCOC(=O)CN1C(=O)C(Cc2ccccc2OC(C)C(=O)O)S/C1=N/c1cc(-n2c(=O)cc(C(F)(F)F)n(C)c2=O)c(F)cc1Cl (stereo not shown) [Compound 114]")
0.0
>>> experimental_result("CCOC(=O)[C@H](C)N1C(=O)CSC1=Nc1cc(-n2c(=O)cc(C(F)(F)F)n(C)c2=O)c(F)cc1Cl [Compound 76]")
0.0
>>> experimental_result("C=CCN1C(=O)C(CC(=O)NOC)SC1=Nc1cc(-n2c(=O)cc(C(F)(F)F)n(C)c2=O)c(F)cc1Cl (stereo not shown) [Compound 85]")
3.0
>>> experimental_result("C=CCN1C(=O)C(CC(N)=O)SC1=Nc1cc(-n2c(=O)cc(C(F)(F)F)n(C)c2=O)c(F)cc1Cl (stereo not shown) [Compound 99]")
0.0
>>> experimental_result("COC(=O)[C@H](Cc1ccccc1)N1C(=O)CS/C1=N/c1cc(-n2c(=O)cc(C(F)(F)F)n(C)c2=O)c(F)cc1Cl [Compound 72]")
4.0
